Would you kindly list pKd for each of these binders?
target-or-system: T1, Human BCMA (human, UniProt Q02223 1-54, limits assumed)
T1 construct: Soluble analyte in SPR; construct not described; also called huBCMA; B-cell maturation antigen
T1 sequence (looked up): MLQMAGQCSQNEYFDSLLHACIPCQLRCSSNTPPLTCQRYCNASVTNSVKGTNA
assay-explanation: SPR, IgG immobilised, 37 C
Kindly note that pKd refers to -log10 of the concentration in mol/L and answer with the value alone.

Query block: # get_value(readout='pKd', item= L3.PY/L1.FF/P6E01 (antibody, V domains shown, IgG) VH: EVQLLESGGGLVQPGGSLRLSCAASGFTFGSYAMTWVRQAPGKGLEWVSAISGSGGNTFYADSVKGRFTISRDNSKNTLYLQMNSLRAEDTAVYYCARVSPIASGMDYWGQGTLVTVSS VL: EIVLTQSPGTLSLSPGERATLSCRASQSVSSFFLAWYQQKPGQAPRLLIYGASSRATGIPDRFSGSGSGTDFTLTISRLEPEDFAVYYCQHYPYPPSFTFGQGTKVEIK )
Result block: 9.23

Query block: Find the recorded pKd belonging to L3.PY/L3.KF/H3.AQ (antibody, V domains shown, IgG) VH: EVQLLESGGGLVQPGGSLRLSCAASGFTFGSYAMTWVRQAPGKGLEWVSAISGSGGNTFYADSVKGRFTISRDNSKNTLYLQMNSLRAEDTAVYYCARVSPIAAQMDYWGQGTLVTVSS VL: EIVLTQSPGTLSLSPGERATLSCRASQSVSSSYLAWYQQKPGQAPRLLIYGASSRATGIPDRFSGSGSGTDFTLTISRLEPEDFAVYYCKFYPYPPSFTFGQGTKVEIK and report it.
Result block: 9.19

Query block: Any idea what pKd was measured for L3.PY/L3.KF/P6E01 (antibody, V domains shown, IgG) VH: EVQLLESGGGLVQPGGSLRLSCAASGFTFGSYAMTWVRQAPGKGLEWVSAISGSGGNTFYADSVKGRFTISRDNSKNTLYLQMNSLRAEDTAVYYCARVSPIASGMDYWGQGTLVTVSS VL: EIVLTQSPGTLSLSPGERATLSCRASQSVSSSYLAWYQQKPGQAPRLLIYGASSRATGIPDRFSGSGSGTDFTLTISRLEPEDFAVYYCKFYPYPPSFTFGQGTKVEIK ?
Result block: 9.14

Query block: Given the binder L3.PY/H2.LT (antibody, V domains shown, IgG) VH: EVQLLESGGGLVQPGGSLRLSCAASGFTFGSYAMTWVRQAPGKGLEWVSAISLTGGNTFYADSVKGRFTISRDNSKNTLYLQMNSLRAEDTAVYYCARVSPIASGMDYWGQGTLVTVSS VL: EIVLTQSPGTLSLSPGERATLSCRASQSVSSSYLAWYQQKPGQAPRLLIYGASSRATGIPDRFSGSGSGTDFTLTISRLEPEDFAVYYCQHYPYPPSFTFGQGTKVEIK , what is its reported pKd?
Result block: 9.27

Query block: What pKd value was documented for this binder, L3.PY/L1.AH/H2.HA (antibody, V domains shown, IgG) VH: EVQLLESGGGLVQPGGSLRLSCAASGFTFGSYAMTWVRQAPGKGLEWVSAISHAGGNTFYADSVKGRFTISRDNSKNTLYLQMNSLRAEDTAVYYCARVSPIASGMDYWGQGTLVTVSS VL: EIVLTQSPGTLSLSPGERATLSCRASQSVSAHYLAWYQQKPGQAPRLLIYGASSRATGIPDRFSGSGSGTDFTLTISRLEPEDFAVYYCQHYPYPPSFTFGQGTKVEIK ?
Result block: 9.27
